System: Stellaria media (STEME)
Method description: A. Herbicidal pre-emergence efficacy, STEME
Assay type: in vivo
Assay context: dosage 320 g/ha
Excerpt: Seeds of mono- and dicotyledonous weed plants were placed in plastic pots in sandy loam soil (doubly sown with one species each of mono- or dicotyledonous weed plants per pot) and covered with soil. […] After about 3 weeks, the efficacy of the preparations was scored visually in comparison with untreated controls as percentages. […]
Experimental readout: Pre-emergence efficacy against STEME (%)
Enter your answer as a number in %; do not include the unit.

Q: Give Pre-emergence efficacy against STEME (Stellaria media (STEME)) of the following compound: "O=S(=O)(CCCC(F)(F)F)Oc1ccccc1Oc1ncc(Cl)cn1"
A: 100

Q: Give Pre-emergence efficacy against STEME (Stellaria media (STEME)) of the following compound: "O=S(=O)(CCCCl)Oc1ccccc1Oc1ncc(F)cn1"
A: 100

Q: Give Pre-emergence efficacy against STEME (Stellaria media (STEME)) of the following compound: O=S(=O)(CC1CC1(Cl)Cl)Oc1c(F)cccc1Oc1ncc(Cl)cn1 (stereo not shown)
A: 100

Q: Give Pre-emergence efficacy against STEME (Stellaria media (STEME)) of the following compound: "CC(C)CCS(=O)(=O)Oc1ccccc1Oc1ncc(Cl)cn1"
A: 90

Q: Give Pre-emergence efficacy against STEME (Stellaria media (STEME)) of the following compound: "O=S(=O)(CCC(F)=C(F)F)Oc1c(Br)cccc1Oc1ncc(Cl)cn1"
A: 90

Q: Give Pre-emergence efficacy against STEME (Stellaria media (STEME)) of the following compound: O=S(=O)(CCC1CC1(Cl)Cl)Oc1c(F)cccc1Oc1ncc(Cl)cn1 (stereo not shown)
A: 90

Q: Give Pre-emergence efficacy against STEME (Stellaria media (STEME)) of the following compound: "O=S(=O)(CCCC(F)(F)F)Oc1c(Cl)cccc1Oc1ncc(Br)cn1"
A: 90

Q: Give Pre-emergence efficacy against STEME (Stellaria media (STEME)) of the following compound: "O=S(=O)(CCC(F)(F)F)Oc1c(Br)cccc1Oc1ncc(F)cn1"
A: 100

Q: Give Pre-emergence efficacy against STEME (Stellaria media (STEME)) of the following compound: "O=S(=O)(CC1CC(F)(F)C1)Oc1c(F)cccc1Oc1ncc(Cl)cn1"
A: 100

Q: Give Pre-emergence efficacy against STEME (Stellaria media (STEME)) of the following compound: "N#Cc1cccc(Oc2ncc(Cl)cn2)c1OS(=O)(=O)CCCCl"
A: 100

Q: Give Pre-emergence efficacy against STEME (Stellaria media (STEME)) of the following compound: "O=S(=O)(CCCC(F)(F)F)Oc1c(F)cccc1Oc1ncc(Br)cn1"
A: 100

Q: Give Pre-emergence efficacy against STEME (Stellaria media (STEME)) of the following compound: "O=S(=O)(CC1CC(F)(F)C1)Oc1c(Br)cccc1Oc1ncc(Cl)cn1"
A: 100

Q: Give Pre-emergence efficacy against STEME (Stellaria media (STEME)) of the following compound: "O=S(=O)(CCl)Oc1ccccc1Oc1ncc(Cl)cn1"
A: 100

Q: Give Pre-emergence efficacy against STEME (Stellaria media (STEME)) of the following compound: "O=S(=O)(CCC(F)=C(F)F)Oc1c(Cl)cccc1Oc1ncc(Cl)cn1"
A: 100

Q: Give Pre-emergence efficacy against STEME (Stellaria media (STEME)) of the following compound: "O=S(=O)(CCCCl)Oc1ccccc1Oc1ncc(Cl)cn1"
A: 100

Q: Give Pre-emergence efficacy against STEME (Stellaria media (STEME)) of the following compound: CCC(C)S(=O)(=O)Oc1ccccc1Oc1ncc(Cl)cn1 (stereo not shown)
A: 100

Q: Give Pre-emergence efficacy against STEME (Stellaria media (STEME)) of the following compound: "Cc1cccc(Oc2ncc(Cl)cn2)c1OS(=O)(=O)CCC(F)(F)F"
A: 100

Q: Give Pre-emergence efficacy against STEME (Stellaria media (STEME)) of the following compound: "O=S(=O)(CCCC(F)F)Oc1c(F)cccc1Oc1ncc(Cl)cn1"
A: 100

Q: Give Pre-emergence efficacy against STEME (Stellaria media (STEME)) of the following compound: "CC(C)CS(=O)(=O)Oc1ccccc1Oc1ncc(Cl)cn1"
A: 90

Q: Give Pre-emergence efficacy against STEME (Stellaria media (STEME)) of the following compound: "O=S(=O)(CCCC(F)(F)F)Oc1c(Cl)cccc1Oc1ncc(Cl)cn1"
A: 100

Q: Give Pre-emergence efficacy against STEME (Stellaria media (STEME)) of the following compound: "O=S(=O)(CCC(F)(F)F)Oc1c(Cl)cccc1Oc1ncc(Br)cn1"
A: 90

Q: Give Pre-emergence efficacy against STEME (Stellaria media (STEME)) of the following compound: "O=S(=O)(CCC(F)(F)F)Oc1c(Cl)cccc1Oc1ncc(Cl)cn1"
A: 100

Q: Give Pre-emergence efficacy against STEME (Stellaria media (STEME)) of the following compound: "O=S(=O)(CCC1CC1)Oc1c(F)cccc1Oc1ncc(Cl)cn1"
A: 100

Q: Give Pre-emergence efficacy against STEME (Stellaria media (STEME)) of the following compound: "O=S(=O)(CC1CC1)Oc1ccccc1Oc1ncc(Cl)cn1"
A: 100

Q: Give Pre-emergence efficacy against STEME (Stellaria media (STEME)) of the following compound: "O=S(=O)(CCCC(F)(F)C(F)(F)F)Oc1c(F)cccc1Oc1ncc(Cl)cn1"
A: 100

Q: Give Pre-emergence efficacy against STEME (Stellaria media (STEME)) of the following compound: "COCCS(=O)(=O)Oc1ccccc1Oc1ncc(Cl)cn1"
A: 100

Q: Give Pre-emergence efficacy against STEME (Stellaria media (STEME)) of the following compound: "O=S(=O)(Oc1ccccc1Oc1ncc(Cl)cn1)C1CCCC1"
A: 100

Q: Give Pre-emergence efficacy against STEME (Stellaria media (STEME)) of the following compound: "O=S(=O)(CCCC(F)(F)F)Oc1c(Br)cccc1Oc1ncc(F)cn1"
A: 100

Q: Give Pre-emergence efficacy against STEME (Stellaria media (STEME)) of the following compound: "C=CCCS(=O)(=O)Oc1c(F)cccc1Oc1ncc(Cl)cn1"
A: 100

Q: Give Pre-emergence efficacy against STEME (Stellaria media (STEME)) of the following compound: "CCCCS(=O)(=O)Oc1ccccc1Oc1ncc(Cl)cn1"
A: 100

Q: Give Pre-emergence efficacy against STEME (Stellaria media (STEME)) of the following compound: "CCCS(=O)(=O)Oc1ccccc1Oc1ncc(Cl)cn1"
A: 100

Q: Give Pre-emergence efficacy against STEME (Stellaria media (STEME)) of the following compound: "Cc1cccc(Oc2ncc(Cl)cn2)c1OS(=O)(=O)CC1CC(F)(F)C1"
A: 90

Q: Give Pre-emergence efficacy against STEME (Stellaria media (STEME)) of the following compound: "Cc1cccc(OS(=O)(=O)CCCCl)c1Oc1ncc(Cl)cn1"
A: 100

Q: Give Pre-emergence efficacy against STEME (Stellaria media (STEME)) of the following compound: "Cc1cccc(Oc2ncc(F)cn2)c1OS(=O)(=O)CCCC(F)(F)F"
A: 100

Q: Give Pre-emergence efficacy against STEME (Stellaria media (STEME)) of the following compound: "Cc1cccc(Oc2ncc(F)cn2)c1OS(=O)(=O)CCC(F)(F)F"
A: 100

Q: Give Pre-emergence efficacy against STEME (Stellaria media (STEME)) of the following compound: "O=S(=O)(Oc1ccccc1Oc1ncc(Cl)cn1)C1CC1"
A: 100

Q: Give Pre-emergence efficacy against STEME (Stellaria media (STEME)) of the following compound: "CCS(=O)(=O)Oc1ccccc1Oc1ncc(Cl)cn1"
A: 100

----------
System: Kochia scoparia (KCHSC)
Method description: E. Herbicidal post-emergence efficacy, KCHSC
Type: in vivo
Assay context: application rate 320 g/ha
Kindly supply the reported Post-emergence efficacy against KCHSC in % values for the records listed here.
The reply should read as a number followed by its unit.

Q: Report Post-emergence efficacy against KCHSC in % for Cc1cccc(Oc2ncc(F)cn2)c1OS(=O)(=O)CCC(F)(F)F [Example I-45] please.
A: 90%

Q: Report Post-emergence efficacy against KCHSC in % for N#Cc1cccc(Oc2ncc(Cl)cn2)c1OS(=O)(=O)CCC(F)(F)F [Example I-82] please.
A: 90%

Q: Report Post-emergence efficacy against KCHSC in % for Cc1cccc(Oc2ncc(F)cn2)c1OS(=O)(=O)CCCC(F)(F)F [Example I-46] please.
A: 100%

Q: Report Post-emergence efficacy against KCHSC in % for O=S(=O)(CCCC(F)(F)F)Oc1c(F)cccc1Oc1ncc(F)cn1 [Example I-42] please.
A: 90%

Q: Report Post-emergence efficacy against KCHSC in % for O=S(=O)(CCC(F)=C(F)F)Oc1c(Cl)cccc1Oc1ncc(Cl)cn1 [Example I-73] please.
A: 90%

Q: Report Post-emergence efficacy against KCHSC in % for O=S(=O)(CCCC(F)F)Oc1c(F)cccc1Oc1ncc(Cl)cn1 [Example I-56] please.
A: 100%

Q: Report Post-emergence efficacy against KCHSC in % for Cc1cccc(Oc2ncc(Cl)cn2)c1OS(=O)(=O)CC1CC(F)(F)C1 [Example I-74] please.
A: 80%

Q: Report Post-emergence efficacy against KCHSC in % for O=S(=O)(CCC1CC1)Oc1c(F)cccc1Oc1ncc(Cl)cn1 [Example I-55] please.
A: 90%

Q: Report Post-emergence efficacy against KCHSC in % for N#Cc1cccc(Oc2ncc(Cl)cn2)c1OS(=O)(=O)CCCC(F)(F)F [Example I-81] please.
A: 100%

Q: Report Post-emergence efficacy against KCHSC in % for N#Cc1cccc(Oc2ncc(Cl)cn2)c1OS(=O)(=O)CC1CC1(Cl)Cl (centres unmarked) [Example I-78] please.
A: 100%

Q: Report Post-emergence efficacy against KCHSC in % for O=S(=O)(CCC(F)(F)F)Oc1c(Cl)cccc1Oc1ncc(Cl)cn1 [Example I-38] please.
A: 100%
